biological target: Protein artemis (Homo sapiens); experiment: blockers of Artemis DNA hairpin overhang cleavage – biochemical, fluorescence intensity, FAM/BHQ-1 hairpin substrate, primary screen (AID 686954); settings: recombinant Artemis, quenched FAM hairpin cleavage fluorescence; at 10 µM
Out of some 30,000 compounds screened, about 240 (0.8%) were called active.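 How the source made its calls: active means at 10 µM dose, at least 30% inhibition, measured as corrected fluorescence normalized to stimulator and neutral control wells; inactive means the rest.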 What follows is part of a selection rich in actives, with near analogues and random picks from the rest.
Outcome codes: active, inactive

| molecule | target.or.system | label.class |
| --- | --- | --- |
| CCC1(CC)NC(=O)N(CC(=O)OCC(=O)Nc2ccc(C(F)(F)F)cc2)C1=O | Protein artemis (Homo sapiens) | inactive |
| CCC(=O)NC(Nc1nc2ccc(C)cc2s1)(C(=O)OC)C(F)(F)F (centres undefined) | Protein artemis (Homo sapiens) | inactive |
| O=C(N/N=C/c1ccsc1)c1cc(O)cc(O)c1 | Protein artemis (Homo sapiens) | inactive |
| O=C(c1ccccc1Oc1ccccc1)N1CCN(c2ccc(F)cc2)CC1 | Protein artemis (Homo sapiens) | inactive |
| Cc1cccc(C(=O)N2CCCN(C(=O)c3cccc(C)c3)CC2)c1 | Protein artemis (Homo sapiens) | inactive |
| CCOC(=O)c1cc(C#N)c(N2CCCCC2)nc1-c1ccccc1 | Protein artemis (Homo sapiens) | inactive |
| CSc1ccc(C#N)cc1NC(=O)c1cccc(Cl)c1 | Protein artemis (Homo sapiens) | inactive |
| COCCCn1c(SCC(=O)Nc2ccccc2)nnc1-c1ccncc1 | Protein artemis (Homo sapiens) | inactive |
| O=S(=O)(c1cccc2nonc12)N1CCN(c2cccc(Cl)c2)CC1 | Protein artemis (Homo sapiens) | inactive |
| Cn1c(CO)cnc1SCc1ccccc1 | Protein artemis (Homo sapiens) | inactive |
| CC(C)OC(=O)c1cc(NC(=O)C2C3CCC(O3)C2C(=O)O)cc(C(=O)OC(C)C)c1 (centres undefined) | Protein artemis (Homo sapiens) | inactive |
| O=c1c2ccccc2c(-c2ccc(F)cc2)nn1-c1ccc(C(F)(F)F)cc1 | Protein artemis (Homo sapiens) | inactive |
| Cc1c(Cl)c([N+](=O)[O-])nn1Cc1ccc(C(=O)N/N=C\c2cc(Cl)ccc2O)o1 | Protein artemis (Homo sapiens) | active |
| Cc1cccc(N2CCN(C(c3ccc(N(C)C)cc3)c3nnnn3C(C)(C)C)CC2)c1C (centres undefined) | Protein artemis (Homo sapiens) | inactive |
